METHOD NOTES: Solubility of fenofibric acid salts in water at 25° C.
Type: physicochemical
EXPERIMENTAL SETUP: read-out: Solubility
Method: Solubility Determination: Solubility values of fenofibric acid salts in water were determined at 25° C. The salts were weighed into glass vials and water was added. The suspensions were rotated from end to end for about 2 days in a 25° C. water bath. The pH of the suspensions was measured. […] The resulting saturated solution was diluted appropriately into the HPLC mobile phase, and analyzed by the HPLC assay described below (Table 3). […]
READOUT LABEL: solubility

CC(C)(Oc1ccc(C(=O)c2ccc(Cl)cc2)cc1)C(=O)O [Free acid, reference compound]	265 µg/mL

What value of solubility has been reported for the following molecule? `C[N+](C)(C)CCO`
> 300000 µg/mL

Can you handle `CCN(CC)CCOC(=O)c1ccc(N)cc1` next?
7200 µg/mL
